# testProtocol: Binding affinity to RING1B (10 to 116 residues)/BMI1 (1 to 104 residues) (unknown origin) extracted from Escherichia coli BL21 (DE3) cells assessed as chemical shift perturbation for amide of Gly83 residue by measuring estimated dissociation constant by 1H-15N HSQC spectra based NMR titration analysis
# Set-up: species or system Homo sapiens
Field: pKd. Provide a value for each of the compounds that follow.
Give bare numbers, as −log10 of the molar value.

Examples with their reported pKd follow.
>  <chemicalString>
CCc1c(-c2cccc3[nH]ccc23)[nH]c(C(=O)O)c1-c1ccccc1

>  <pKd>
4.52

$$$$
>  <chemicalString>
CCc1c(-c2cccc3[nH]ccc23)[nH]c(C(=O)O)c1C1CCCCC1

>  <pKd>
3.77

$$$$
>  <chemicalString>
O=C(O)c1ccc(-c2cccc3[nH]ccc23)[nH]1

>  <pKd>
2.66

$$$$
>  <chemicalString>
CCc1c(C(=O)O)[nH]c(-c2cccc3[nH]ccc23)c1CC

>  <pKd>
3.60

$$$$

Next compound, please.
Which measured pKd value corresponds to `Cc1cc(-c2cccc3[nH]ccc23)[nH]c1C(=O)O` ?
2.96
